Source: paper PMC9482650

Molecular target: IL16_1, Q14005
Sequence (Q14005 210-306): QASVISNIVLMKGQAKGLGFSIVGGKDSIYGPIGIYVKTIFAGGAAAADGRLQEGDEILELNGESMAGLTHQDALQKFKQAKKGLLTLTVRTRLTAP
Experiment: holdup assay
Parameters: key: below the threshold = too weak to quantify, mostly under pKd 3.1 to 4
Conditions: plain residues with an end cap or a label only (N-terminal biotin on a linker: ado-ado)

>  <binder>
TFSRRPKTRV [CD226, Q15762]

>  <pKd>
3.57

$$$$
>  <binder>
SQDPKKPSRV [CBY2, Q8NA61]

>  <pKd>
below the threshold

$$$$
>  <binder>
RDYTQSSSSL [GRM5, P41594]

>  <pKd>
below the threshold

$$$$
>  <binder>
SKQFDKNAYV [CLDN10, P78369]

>  <pKd>
below the threshold

$$$$
>  <binder>
DLLGGGSDSI [TNRC6B, Q9UPQ9]

>  <pKd>
below the threshold

$$$$
>  <binder>
GQNMTVSVVI [PRLHR, P49683]

>  <pKd>
3.81

$$$$
>  <binder>
HYPASPDSWV [CTNND2, Q9UQB3]

>  <pKd>
4.24

$$$$
>  <binder>
NSTHNLKDYV [CLDN20, P56880]

>  <pKd>
below the threshold

$$$$
>  <binder>
QQGLLPHSSC [TYRO3, Q06418]

>  <pKd>
below the threshold

$$$$
>  <binder>
FVFESRKEIL [TBPL1, P62380]

>  <pKd>
below the threshold

$$$$
>  <binder>
ADEMICITTL [CACNA1D, Q01668]

>  <pKd>
below the threshold

$$$$
>  <binder>
NNMAFETTHF [SLC5A12, Q1EHB4]

>  <pKd>
below the threshold

$$$$
>  <binder>
SQPLLVHDDV [KIT, P10721]

>  <pKd>
below the threshold

$$$$
>  <binder>
NISARRFTLC [FAM167B, Q9BTA0]

>  <pKd>
below the threshold

$$$$
>  <binder>
YAEKRMLTEV [KCNA6, P17658]

>  <pKd>
below the threshold

$$$$
>  <binder>
MQILSKPEFI [NPSR1, Q6W5P4]

>  <pKd>
below the threshold

$$$$
